Examples of sequences with documented phosphorylation enrichment follow.
# TGT: FGFR3 (UniProt P22607)
# Sequence (P22607 whole entry, looked up): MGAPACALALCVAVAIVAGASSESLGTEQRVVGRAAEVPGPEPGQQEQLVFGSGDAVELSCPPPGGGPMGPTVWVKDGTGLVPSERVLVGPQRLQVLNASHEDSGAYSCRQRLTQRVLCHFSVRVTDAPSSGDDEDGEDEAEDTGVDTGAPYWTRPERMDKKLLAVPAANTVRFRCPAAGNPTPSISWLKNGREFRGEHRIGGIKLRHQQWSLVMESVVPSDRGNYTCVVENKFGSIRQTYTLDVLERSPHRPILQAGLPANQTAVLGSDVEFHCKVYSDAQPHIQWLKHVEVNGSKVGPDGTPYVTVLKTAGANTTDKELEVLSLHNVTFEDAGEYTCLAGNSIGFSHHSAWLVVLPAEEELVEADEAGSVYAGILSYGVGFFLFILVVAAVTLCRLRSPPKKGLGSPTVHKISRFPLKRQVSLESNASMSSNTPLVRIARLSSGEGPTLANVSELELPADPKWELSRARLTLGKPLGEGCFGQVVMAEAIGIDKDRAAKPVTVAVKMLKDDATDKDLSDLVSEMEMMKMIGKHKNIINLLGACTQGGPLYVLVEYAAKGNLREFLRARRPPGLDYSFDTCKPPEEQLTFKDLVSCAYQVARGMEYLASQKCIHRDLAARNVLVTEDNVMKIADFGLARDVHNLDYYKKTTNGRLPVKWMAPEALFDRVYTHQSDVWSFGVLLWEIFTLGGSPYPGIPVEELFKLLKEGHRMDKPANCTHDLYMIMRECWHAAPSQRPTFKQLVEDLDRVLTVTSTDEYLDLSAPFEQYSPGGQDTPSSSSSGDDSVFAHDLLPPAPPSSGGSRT
# PROCEDURE_SUMMARY: phosphorylation enrichment, bacterial display (enrichment ratio); higher = better substrate or ligand; peptides without Tyr show the background;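 note: 11-residue human phosphosite peptides and single-mutation variants displayed on the E. coli surface, counted by deep sequencing, each peptide's frequency after selection divided by its frequency in the unselected input library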;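 note: frequency after pTyr selection over input frequency; kinase dosed for 20-30% of maximal phosphorylation in three min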
I'd appreciate a reply containing only the number, no unit.

Prompt: Any idea what phosphorylation enrichment came out for GPGGDYAAMGA [ERBB3_Y1276] on FGFR3 (UniProt P22607)?
Response: 0.605

***
Prompt: Any idea what phosphorylation enrichment came out for ESSKAYERALS [TTC37_Y1074] on FGFR3 (UniProt P22607)?
Response: 0.476

Prompt: Any idea what phosphorylation enrichment came out for DLRGIYQKLVI on FGFR3 (UniProt P22607)?
Response: 0.854

Prompt: Any idea what phosphorylation enrichment came out for SYVVRYNQPRV [GRIN2D_Y736_M733V] on FGFR3 (UniProt P22607)?
Response: 0.588

Prompt: Any idea what phosphorylation enrichment came out for LAAAGYDVKKN [H1-3_Y72_E75K] on FGFR3 (UniProt P22607)?
Response: 0.331

Hello, the source for this data is the supplement of paper PMC10065799, in case you need it.
